Biological target: Human GO (Homo sapiens, UniProt Q9UJM8)
Construct: purchased Novus Biologicals NBP1-72412
Sequence (Q9UJM8 1-370): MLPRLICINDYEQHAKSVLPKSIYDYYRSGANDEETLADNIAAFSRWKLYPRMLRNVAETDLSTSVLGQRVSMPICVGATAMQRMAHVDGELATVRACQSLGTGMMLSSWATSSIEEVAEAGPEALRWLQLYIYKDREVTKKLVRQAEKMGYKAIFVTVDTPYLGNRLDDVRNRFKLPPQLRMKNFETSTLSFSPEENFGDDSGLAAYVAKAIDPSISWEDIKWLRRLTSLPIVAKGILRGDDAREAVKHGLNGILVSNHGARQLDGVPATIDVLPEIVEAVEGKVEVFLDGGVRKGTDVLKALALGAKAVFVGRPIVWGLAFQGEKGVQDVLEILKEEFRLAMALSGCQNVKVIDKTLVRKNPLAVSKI
Experiment: GO enzymatic assay (coupled fluorescence/HRP assay, glycolate substrate)
Assay type: biochemical
Settings: Table 1; read-out: Range (range of IC50 values calculated from the enzymatic assays)
Protocol: Assay 1: GO Enzymatic Assay GO was incubated with its substrate, glycolate, in 50 mM potassium phosphate buffer, pH 7. […] The enzyme was optimized and the kinetics was determined. Compound inhibition was determined by adding various concentrations of inhibitors in the GO enzyme assay. […]
pIC50: −log10 of the molar value.
experimental_readout: pIC50

compound	endpoint_result
CC(=O)OCOC(=O)c1[nH]nnc1Oc1ccc2cc(Br)ccc2c1	5.00 to 6.00

Ask: // query pIC50 value for entry O=C(O)c1[nH]nnc1Nc1ccc(-c2ccc(Cl)c(Cl)c2)cc1
Result: > 7.00

Ask: Can you check O=C(O)c1[nH]nnc1Sc1nc(-c2ccc(OC(F)(F)F)c(Cl)c2)cs1 next?
Result: > 7.00

Ask: Can you check O=C(O)c1[nH]nnc1NCc1ccc(-c2ccc(Cl)c(Cl)c2)cc1 next?
Result: > 7.00

Ask: Can you check CC(C)C(=O)OCOC(=O)c1[nH]nnc1Oc1ccc(Cl)c(Cl)c1 next?
Result: 6.00 to 7.00

Ask: Can you check O=C(O)c1[nH]nnc1Oc1cnc2ccccc2c1 [Compound 115, 2,2,2-trifluoroacetate] next?
Result: 6.00 to 7.00

Ask: Can you check O=C(O)c1[nH]nnc1Sc1ccc(-c2ccc(Br)cc2)cn1 [Compound 12, 2,2,2-trifluoroacetate] next?
Result: 6.00 to 7.00

Ask: Can you check O=C(O)c1[nH]nnc1Oc1ccc2ccncc2c1 [Compound 118, 2,2,2-trifluoroacetate] next?
Result: > 7.00

Ask: Can you check O=C(O)c1[nH]nnc1Oc1ccc2ncsc2c1 [Compound 99, 2,2,2-trifluoroacetate] next?
Result: > 7.00

---

molecular target: Human GO (Homo sapiens, UniProt Q9UJM8); construct: purchased Novus Biologicals NBP1-72412; test: GO enzymatic assay (coupled fluorescence/HRP assay, glycolate substrate); assay type: biochemical; conditions: Table 1; read-out: Range (range of IC50 values calculated from the enzymatic assays)
The reader will find reported IC50 values listed item by item below.

Past entries and their recorded results:
molecule	endpoint_result
O=C(O)c1[nH]nnc1Oc1cccc(OC(F)(F)F)c1	< 100 nM
O=C(O)c1[nH]nnc1Nc1csc(-c2ccc(Cl)c(Cl)c2)n1	< 100 nM
CC(C)OC(=O)c1[nH]nnc1Sc1nc(-c2ccc(Cl)c(Cl)c2)cs1	> 10000 nM
O=C(O)c1[nH]nnc1Oc1ccc(-c2ccc(OC(F)(F)F)cc2)c(Cl)c1	< 100 nM
O=C(O)c1[nH]nnc1Sc1ncc(-c2ccc(Cl)c(Cl)c2)s1	< 100 nM
O=C(O)c1[nH]nnc1Sc1ccc(N2CCCCC2)cc1 [Compound 7, 2,2,2-trifluoroacetate]	100 to 1000 nM
O=C(O)c1[nH]nnc1C(=O)N1CCC(c2ccc(Cl)cc2)C1 (centres unmarked)	1000 to 10000 nM
O=C(O)c1[nH]nnc1OC1CCN(c2ccc(OC(F)(F)F)cc2)C1 (centres unmarked)	< 100 nM

Ask: Give Human GO (Homo sapiens, UniProt Q9UJM8) IC50 for COc1ccc(-c2csc(Sc3nn[nH]c3C(=O)O)n2)cc1Cl
Result: < 100 nM

Ask: Can you check O=C(O)c1[nH]nnc1Nc1ccc(Cl)c2ccccc12 next?
Result: 100 to 1000 nM

Ask: Can you check O=C(O)c1[nH]nnc1Nc1ccc(-c2ccc(OC(F)(F)F)cc2)cc1 [Compound 62, 2,2,2-trifluoroacetate] next?
Result: < 100 nM
